- Tested on: Plasmodium berghei
- testName: Luciferase/luciferin-expressing antifolate-resistant parasites were used to infect a culture of HepG2 cells that were pre-incubated with compounds. Infected hepatocytes emit light due to the luciferase reaction. Assay results are presented as the percent inhibition of light emission compared to control. […]
- Format: functional
- assayConditions: sporozoite, HEPG2TOX_HILL_SLOPE 1.91, HEPG2TOX_R_SQUARED 0.961, read-out: LUCIFERASE INFECTION ASSAY - IC50

- molSmiles: "O=C(Nc1cccc(Cl)c1)C1=COC2=NC(=O)N(Cc3ccccc3)CCN12"
  systemName: "Plasmodium berghei"
  IC50: "> 10 µM"

====

- Tested on: Plasmodium berghei
- testName: Luciferase/luciferin-expressing antifolate-resistant parasites were used to infect a culture of HepG2 cells that were pre-incubated with compounds. Infected hepatocytes emit light due to the luciferase reaction. Assay results are presented as the percent inhibition of light emission compared to control. […]
- Format: functional
- assayConditions: sporozoite, PBLUC_HILL_SLOPE 5.1, PBLUC_R_SQUARED 0.643, read-out: LUCIFERASE INFECTION ASSAY - IC50

- molSmiles: "COc1cc(OC)cc(-c2cn3c(-c4ccc(CO)cc4)cnc3cn2)c1"
  systemName: "Plasmodium berghei"
  IC50 / µM: 5.42

Where do the numbers come from? From ChEMBL document CHEMBL4483862.
